Task for the reader: assign each of the following compounds its reported Ki.
molecular target: μ-opioid receptor (Rattus norvegicus, UniProt P33535); construct: the forebrains are homogenized in Tris buffer in a Teflon®-glass homogenizer; from tissue; host or cells: forebrain of male Wistar rats (particulate membrane preparation); assay: Rat brain μ-opioid receptor binding assay ([3H]DAMGO); conditions: 10 nM solutions of the compounds, read-out: MOR binding Ki
Sequence (P33535 whole entry): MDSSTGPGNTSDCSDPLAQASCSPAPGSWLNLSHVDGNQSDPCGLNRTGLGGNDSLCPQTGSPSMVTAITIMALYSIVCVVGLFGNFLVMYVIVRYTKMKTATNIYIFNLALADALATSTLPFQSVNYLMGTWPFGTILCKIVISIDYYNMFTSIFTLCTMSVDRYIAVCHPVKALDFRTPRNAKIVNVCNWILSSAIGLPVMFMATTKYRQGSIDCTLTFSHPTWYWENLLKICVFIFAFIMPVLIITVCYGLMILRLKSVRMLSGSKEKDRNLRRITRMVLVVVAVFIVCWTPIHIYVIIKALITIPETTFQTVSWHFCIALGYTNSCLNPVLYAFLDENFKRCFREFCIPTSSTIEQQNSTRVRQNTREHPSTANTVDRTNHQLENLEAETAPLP
Lab book: enter the figure in nM, no units written.

Q. What does the record list as Ki for CCNC(=O)c1ccc(C(Br)=C2CC3CCC(C2)N3Cc2ccco2)cc1 [Cpd 24] ?
A. 21.7

Q. Field entry: CCNC(=O)c1ccc(C(=C2CC3CCC(C2)N3Cc2ccco2)c2ccc(C(=O)O)cc2)cc1 [Cpd 96]
A. 63.5

Q. Field entry: CCNC(=O)c1ccc(C(=C2CC3CCC(C2)N3Cc2ccc(C(=O)O)o2)c2cccc(C(=O)O)c2)cc1 [Cpd 87]
A. 815

Q. Field entry: CCNC(=O)c1ccc(C(=C2CC3CCC(C2)N3Cc2ccsc2)c2cnc3ccccc3c2)cc1 [Cpd 15]
A. 127

----------
Task for the reader: assign each of the following molecules its reported pKi.
molecular target: μ-opioid receptor (Rattus norvegicus); construct: the forebrains are homogenized in Tris buffer in a Teflon®-glass homogenizer; from tissue; host or cells: forebrain of male Wistar rats (particulate membrane preparation); assay: Rat brain μ-opioid receptor binding assay ([3H]DAMGO); conditions: MOR binding Ki
The quantity pKi is defined as the negative base-10 logarithm of the molar concentration.

Q. # get_value(readout= pKi, system= μ-opioid receptor (Rattus norvegicus)) for `CCNC(=O)c1ccc(C(=C2CC3CCC(C2)N3Cc2nccs2)c2ccc(CCC(=O)O)cc2)cc1`
A. 6.79

Q. Field entry: `CCNC(=O)c1ccc(C(=C2CC3CCC(C2)N3CC=C(C)C)c2ccc(S(N)(=O)=O)cc2)cc1`
A. 8.40

Q. Field entry: `CCNC(=O)c1ccc(C(=C2CC3CCC(C2)N3Cc2nccs2)c2ccc(C(=O)O)cc2)cc1`
A. 6.52

Q. Field entry: `CCNC(=O)c1ccc(C(=C2CC3CCC(C2)N3Cc2ccoc2)c2cc(C(=O)O)cc([N+](=O)[O-])c2)cc1`
A. 7.91

Q. Field entry: `CCNC(=O)c1ccc(C(=C2CC3CCC(C2)N3Cc2ccccn2)c2ccc(NS(C)(=O)=O)cc2)cc1`
A. 8.57

Q. Field entry: `CCNC(=O)c1ccc(C(=C2CC3CCC(C2)N3Cc2ccsc2)c2cccc(CN)c2)cc1`
A. 6.07

Q. Field entry: `CCNC(=O)c1ccc(C(=C2CC3CCC(C2)N3Cc2ccco2)c2ccc(C(N)=O)cc2)cc1`
A. 8.00

Q. Field entry: `CCN(CC)C(=O)c1ccc(C=C2CC3CCC(C2)N3)cc1`
A. 4.59

Q. Field entry: `CCN(CC)C(=O)c1ccc(C(Br)=C2CC3CCC(C2)N3CCc2ccccc2)cc1`
A. 6.00

Q. Field entry: `CCNC(=O)c1ccc(C(=C2CC3CCC(C2)N3Cc2ccc3ccccc3n2)c2cccc(F)c2)cc1`
A. 7.13

Q. Field entry: CCNC(=O)c1ccc(C(Br)=C2CC3CCC(C2)N3Cc2ccoc2)cc1 [Cpd 26]
A. 8.73

Q. Field entry: `CCNC(=O)c1ccc(C(=C2CC3CCC(C2)N3Cc2ccc(C(=O)O)cc2)c2ccccc2)cc1`
A. 6.49

Q. Field entry: `CCNC(=O)c1ccc(C(=C2CC3CCC(C2)N3Cc2ccc3ccccc3n2)c2ccc(C(=O)O)cc2)cc1`
A. 6.83

Q. Field entry: `CCNC(=O)c1ccc(C(=C2CC3CCC(C2)N3C(=O)c2ccccn2)c2cccnc2)cc1`
A. 5.00

Q. Field entry: CCNC(=O)c1ccc(C=C2C[C@H]3CC[C@@H](C2)N3CCc2ccccc2)cc1 (single isomer, unassigned) [Cpd 42]
A. 8.22

Q. Field entry: `CCNC(=O)c1ccc(C(=C2CC3CCC(C2)N3Cc2ccc3ccccc3n2)c2ccc3c(c2)OCO3)cc1`
A. 7.47
